ASSAYED_TARGET: Sodium/glucose cotransporter 2 (Homo sapiens)
Sequence (whole entry): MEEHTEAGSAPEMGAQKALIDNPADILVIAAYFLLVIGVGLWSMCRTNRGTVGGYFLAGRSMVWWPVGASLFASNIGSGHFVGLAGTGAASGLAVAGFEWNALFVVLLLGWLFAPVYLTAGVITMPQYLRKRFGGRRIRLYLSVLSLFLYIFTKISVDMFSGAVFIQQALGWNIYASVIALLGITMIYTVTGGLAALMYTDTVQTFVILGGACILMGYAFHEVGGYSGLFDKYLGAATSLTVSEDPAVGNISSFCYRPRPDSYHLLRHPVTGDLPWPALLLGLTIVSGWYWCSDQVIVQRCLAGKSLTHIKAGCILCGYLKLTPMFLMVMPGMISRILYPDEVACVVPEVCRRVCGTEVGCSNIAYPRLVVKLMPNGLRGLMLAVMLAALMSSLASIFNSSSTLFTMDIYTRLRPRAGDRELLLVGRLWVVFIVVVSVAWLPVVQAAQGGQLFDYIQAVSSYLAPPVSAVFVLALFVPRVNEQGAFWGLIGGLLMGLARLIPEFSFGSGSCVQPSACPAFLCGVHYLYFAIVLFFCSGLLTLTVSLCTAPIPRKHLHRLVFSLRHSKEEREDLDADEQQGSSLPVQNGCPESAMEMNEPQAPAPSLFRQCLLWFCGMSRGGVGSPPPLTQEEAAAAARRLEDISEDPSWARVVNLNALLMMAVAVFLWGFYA
PROCEDURE_TEXT: Inhibition of human SGLT2 expressed in COS1 cells assessed as [14C]methyl-alpha-D-glucopyranoside uptake at 50 uM
Type: cell-based
RUN_PARAMETERS: COS-1
METRIC_NAME: inhibition (%)

Would you please look over these solved cases?
| COMPOUND | UNIT_SYMBOL | inhibition |
| --- | --- | --- |
| CC(=O)Oc1ccc2cc1Oc1ccc(cc1)CC[C@@H](OC(C)=O)CCCC2 | % | 67.5 |
| O=C1CCCCc2ccc(O)c(c2)Oc2ccc(cc2)CC1 | % | 67.8 |
| O=C1CCCCc2ccc(OCc3ccccc3)c(c2)Oc2ccc(cc2)CC1 | % | 19.8 |
| Oc1ccc2cc1Oc1ccc(cc1)CCCCCCC2 | % | 77.4 |

A. O=C1CCCCc2ccc(OC(=O)c3ccccc3)c(c2)Oc2ccc(cc2)CC1
B. Oc1ccc2cc1Oc1ccc(cc1)C/C=C/CCCC2
From the recorded data, which exceeds the other in inhibition: A or B ? Kindly give the label for the entry you pick.
A

a. COc1ccc2cc1Oc1ccc(cc1)CCCCC(O)CC2 (centres undefined)
b. CC(C)C(=O)Oc1ccc2cc1Oc1ccc(cc1)CC[C@@H](OC(=O)C(C)C)CCCC2
When the recorded inhibition values are compared, which is smaller: that of a or that of b ? Kindly give the label for the entry you pick.
b

----------
ASSAYED_TARGET: Sodium/glucose cotransporter 1 (Homo sapiens) (UniProt P13866)
Sequence (whole entry): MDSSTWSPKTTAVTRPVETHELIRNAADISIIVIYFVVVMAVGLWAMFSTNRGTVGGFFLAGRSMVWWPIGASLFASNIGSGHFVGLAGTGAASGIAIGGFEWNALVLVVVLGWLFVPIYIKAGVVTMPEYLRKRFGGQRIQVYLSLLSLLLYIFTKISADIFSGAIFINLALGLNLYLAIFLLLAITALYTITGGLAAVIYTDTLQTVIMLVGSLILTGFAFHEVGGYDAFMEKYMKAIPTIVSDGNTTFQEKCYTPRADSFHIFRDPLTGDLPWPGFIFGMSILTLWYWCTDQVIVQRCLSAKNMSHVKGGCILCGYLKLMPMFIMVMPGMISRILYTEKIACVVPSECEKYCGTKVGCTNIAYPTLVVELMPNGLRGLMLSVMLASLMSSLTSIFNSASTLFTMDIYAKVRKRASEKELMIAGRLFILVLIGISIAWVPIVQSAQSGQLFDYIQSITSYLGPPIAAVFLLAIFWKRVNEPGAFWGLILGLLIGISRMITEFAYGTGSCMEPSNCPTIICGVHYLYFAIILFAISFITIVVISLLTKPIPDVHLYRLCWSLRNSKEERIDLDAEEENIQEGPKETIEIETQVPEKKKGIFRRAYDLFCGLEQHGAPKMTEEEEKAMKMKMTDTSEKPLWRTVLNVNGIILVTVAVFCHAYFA
PROCEDURE_TEXT: Inhibition of human SGLT1 expressed in COS1 cells assessed as [14C]methyl-alpha-D-glucopyranoside uptake at 50 uM
Type: cell-based
RUN_PARAMETERS: COS-1
METRIC_NAME: inhibition (%)

Would you please look over these solved cases?
| COMPOUND | inhibition (%) |
| --- | --- |
| COc1ccc2cc1Oc1ccc(cc1)CC[C@@H](O)CCCC2 | 67.8 |
| O=C1CCCCc2ccc(O)c(c2)Oc2ccc(cc2)CC1 | 44.9 |
| COc1ccc2cc1Oc1ccc(cc1)CCCCC(O)CC2 (stereo not drawn) | 77.9 |

I. O=C1CCCCc2ccc(OC(=O)c3ccccc3)c(c2)Oc2ccc(cc2)CC1
II. O=C(Oc1ccc2cc1Oc1ccc(cc1)CC[C@@H](OC(=O)c1ccccc1)CCCC2)c1ccccc1
When the recorded inhibition values are compared, which is smaller: that of I or that of II ? Kindly give the label for the entry you pick.
II
(II: -1.7%, I: 1.4%)

1. O=C(Oc1ccc2cc1Oc1ccc(cc1)CC[C@@H](OC(=O)c1ccc(Cl)cc1)CCCC2)c1ccc(Cl)cc1
2. COc1ccc2cc1Oc1ccc(cc1)CCC(=O)CCCC2
When the recorded inhibition values are compared, which is smaller: that of 1 or that of 2 ? Kindly give the label for the entry you pick.
1
(1: 15.7%, 2: 44.6%)
